Values were extracted from the supplement of paper PMC6757056.

Each record here notes measured normalized RNA/DNA level without ligand (log10).
B1: library; a variant is named by its letters at N, in order (parent)
chain: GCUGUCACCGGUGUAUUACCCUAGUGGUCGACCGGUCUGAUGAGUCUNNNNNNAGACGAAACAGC

# Variants of: B1
# test summary: normalized RNA/DNA level without ligand (relative to sTRSVctl = 100) (log10 (% of sTRSVctl)); ligand: hypoxanthine (xanthine aptamer); higher = less ribozyme self-cleavage, higher mRNA level
# cond: HEK293T, reporter: mCherry (pCS4076), ligand present: no
measured metric: normalized RNA/DNA level without ligand (log10)

1. GAUAGC :: 1.55
2. UUCGAU :: 1.77
3. CAUAGU :: 1.88
4. AAGGAG :: 1.12
5. GUGACU :: 1.88
6. CGUACA :: 1.72
7. UAUUCU :: 1.88
8. CAUUUC :: 1.9
9. UCAGAU :: 1.76
10. CUAUUU :: 1.93
11. GCUUUU :: 1.83
12. UGCGGU :: 1.74
13. CAGCUC :: 1.97
14. GCAUGC :: 1.74
15. ACGUAC :: 1.55
16. ACCGAA :: 1.74
17. GUUAUU :: 1.92
18. UAUCAC :: 1.86
19. UCCGGU :: 1.83
20. CCCUCA :: 1.97
21. AAAACA :: 1.8
22. UUAUAU :: 1.85
23. UUAGAU :: 1.77
24. CCAGCA :: 1.87
25. GACGAA :: 1.7
26. GCUGGG :: 1.55
27. UCACAA :: 1.75
28. GGGAUU :: 1.82
29. AUGCGC :: 1.73
30. UACUGU :: 1.67
31. UGGCCC :: 1.99
32. GGCGAU :: 1.9
33. UUAACU :: 1.84
34. UUCGAC :: 1.78
35. GUCAGA :: 1.74
36. GCGUUA :: 1.65
37. CACGGG :: 1.32
38. UGCCAC :: 1.89
39. CGAAGC :: 1.81
40. CUGCCA :: 1.89
41. GCACCC :: 1.78
42. AUGAAC :: 1.73
43. GGUCAU :: 1.89
44. UAGACA :: 1.86
45. GAGCUC :: 1.91
46. UUGACC :: 1.99
